Just for reference, ChEMBL document CHEMBL1159121 is where these values come from.

- Experiment Description: Antiproliferative activity against human WM164 cells after 48 hrs by SRB assay
- Type: functional, cell-based
- Experimental Conditions: WM164, 48 h
Observation Type: pIC50
The value called pIC50 is obtained by taking minus log10 of the concentration in mol/L.

Query :: Tell me measured pIC50 for CCCCCCCCCCCCCCCCNC(=O)[C@@H]1CSC(c2ccccc2OC)N1 (mixture of isomers) please.
Result :: 5.62

Query :: Tell me measured pIC50 for CCCCCCCCCCCCCCCCNC(=O)[C@@H]1CSC(c2ccc(NC(C)=O)cc2)N1 (mixture of isomers) please.
Result :: 5.96

Query :: Tell me measured pIC50 for CCCCCCCCCCCCCCCCNC(=O)[C@@H]1CSC(c2cc(OC)c(OC)c(OC)c2)N1 (mixture of isomers) please.
Result :: 6.15

Query :: Tell me measured pIC50 for CCCCCCCCCCCCCCCCNC(=O)[C@@H]1CSC(c2ccc(NC(N)=O)cc2)N1 (mixture of isomers) please.
Result :: 5.77

Query :: Tell me measured pIC50 for CCCCCCCCC#CCCCCCCCCCNC(=O)[C@@H]1CSC(c2ccc(NC(C)=O)cc2)N1 (mixture of isomers) please.
Result :: 5.89

Query :: Tell me measured pIC50 for CCCCCCCCCCCCCCCCCCNC(=O)[C@@H]1CSC(c2ccc(OC)c(OC)c2)N1 (mixture of isomers) please.
Result :: 5.57

Query :: Tell me measured pIC50 for CCCCCCCCCCCCCCCCNC(=O)[C@@H](N)CSCc1ccccc1 please.
Result :: 4.89

Query :: Tell me measured pIC50 for CCCCCCCCCCCCCCCCNC(=O)[C@@H]1CSC(c2ccc(NC(=O)CCl)cc2)N1 (mixture of isomers) please.
Result :: 5.24

Query :: Tell me measured pIC50 for CCCCCCCCCCCCCCCCNC[C@@H]1CSC(c2ccc(NC(C)=O)cc2)N1 (mixture of isomers) please.
Result :: 5.49

Query :: Tell me measured pIC50 for CC(=O)Nc1ccc(C2N[C@H](C(=O)NC3C4CC5CC(C4)CC3C5)CS2)cc1 (mixture of isomers) please.
Result :: 4.19

Query :: Tell me measured pIC50 for CCCCCCCCC/C=C/CCCCCCCNC(=O)[C@@H]1CSC(c2cc(OC)c(OC)c(OC)c2)N1 (mixture of isomers) please.
Result :: 5.96

Query :: Tell me measured pIC50 for CCCCCCCCCCCCCCCCNC(=O)CNCc1ccc(NC(C)=O)cc1 please.
Result :: 4.99

====

- Experiment Description: Antiproliferative activity against mouse B16-F1 cells after 48 hrs by SRB assay
- Type: functional, cell-based
- Experimental Conditions: B16-F1, 48 h
pIC50: −log10 of the molar value.
Please enter 1.0 where pIC50 is greater than or equal to 5, and 0.0 where it is lower.

Query :: I'd appreciate it if you could say whether CCCCCCCCC#CCCCCCCCCCNC(=O)[C@@H]1CSC(c2ccc(NC(C)=O)cc2)N1 (mixture of isomers) has pIC50 at least equal to 5.
Result :: 1.0

Query :: I'd appreciate it if you could say whether CCCCCCCCCCCCCCCCNC(=O)[C@@H]1CSC(c2ccccc2OC)N1 (mixture of isomers) has pIC50 at least equal to 5.
Result :: 1.0

Query :: I'd appreciate it if you could say whether CCCCCCCCCCCCCCCCOC(=O)[C@@H]1CSC(c2ccc(NC(C)=O)cc2)N1 (mixture of isomers) has pIC50 at least equal to 5.
Result :: 0.0

Query :: I'd appreciate it if you could say whether CCCCCCCCCCCCCCCCNC(=O)[C@@H]1CSC(c2ccc(OC)cc2)N1 (mixture of isomers) has pIC50 at least equal to 5.
Result :: 1.0

Query :: I'd appreciate it if you could say whether CN(C)/N=N/c1[nH]cnc1C(N)=O has pIC50 at least equal to 5.
Result :: 0.0

Query :: I'd appreciate it if you could say whether CCCCCCCCCCCCCCCCCCNC(=O)[C@@H]1CSC(c2ccc(OC)c(OC)c2)N1 (mixture of isomers) has pIC50 at least equal to 5.
Result :: 0.0
